Reference for the values: ChEMBL document CHEMBL1275375

- studyTarget: Prostaglandin G/H synthase 1 (Homo sapiens, UniProt P23219)
- Sequence (P23219 whole entry): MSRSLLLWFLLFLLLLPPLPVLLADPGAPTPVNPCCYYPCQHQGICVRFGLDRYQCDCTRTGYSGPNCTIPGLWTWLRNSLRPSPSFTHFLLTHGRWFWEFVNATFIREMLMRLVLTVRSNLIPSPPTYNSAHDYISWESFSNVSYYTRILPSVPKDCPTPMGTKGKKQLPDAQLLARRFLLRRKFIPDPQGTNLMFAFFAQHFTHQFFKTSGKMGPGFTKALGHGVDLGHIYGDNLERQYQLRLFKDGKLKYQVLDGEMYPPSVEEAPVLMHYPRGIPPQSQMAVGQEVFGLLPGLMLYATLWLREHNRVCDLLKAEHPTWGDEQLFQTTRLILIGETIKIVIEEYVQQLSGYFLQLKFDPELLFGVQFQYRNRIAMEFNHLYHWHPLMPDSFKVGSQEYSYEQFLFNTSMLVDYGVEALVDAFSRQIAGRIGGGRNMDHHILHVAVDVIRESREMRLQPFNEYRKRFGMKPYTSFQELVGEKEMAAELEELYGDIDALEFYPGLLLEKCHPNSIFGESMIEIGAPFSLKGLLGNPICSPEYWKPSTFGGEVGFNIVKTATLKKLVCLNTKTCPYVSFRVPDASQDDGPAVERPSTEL
- procedureDetails: Inhibition of COX1 in human whole blood assessed as TXB2 biosynthesis after 24 hrs by EIA
pIC50: −log10 of the molar value.
measurementType: pIC50

Observe how each entry below is paired with its result.
CC(C(=O)O)c1ccc(C[C@@H]2CCC[C@@H]2O)cc1F (relative stereo) | 5.11
CC(C(=O)[O-])c1ccc(CC2CCCC2=O)cc1Br.[Na+] (configuration not stated) | 4.52
CC(C(=O)[O-])c1ccc(CC2CCCC2=O)cc1.[Na+] (configuration not stated) [LOXOPROFEN SODIUM] | 4.63
CC(C(=O)[O-])c1ccc(CC2CCCC2=O)cc1F.[Na+] (configuration not stated) | 4.62
CC(C(=O)O)c1ccc(C[C@H]2CCC[C@@H]2O)cc1F (relative stereo) | 6.22

a = CC(C(=O)O)c1ccc(C[C@@H]2CCC[C@@H]2O)cc1Br (relative stereo)
b = CC(C(=O)O)c1ccc(C[C@H]2CCC[C@@H]2O)cc1Br (relative stereo)
Which numeric pIC50 is bigger, that of a or that of b ? Bench note: the answer is the label of the chosen record.
b
